Parameter IC50: see the listing below.
- Test system: PC-3 (prostate cancer)
- protocol_notes: MTT growth inhibition of human solid tumor cells, 72 h
- Type: cell-based
- condition_label: Homo sapiens; PC-3, 72 h; read-out: IC50
- Experimental: […] Obtaining 4000 well-growing human solid tumor cells and inoculating them into wells of a 96-well cell culture plate. […] Then the viable cell concentration is determined by the MTT method.

[[record]]
smiles_text = "COC(=O)/C=C/C(=O)OCCN(C)Cc1oc2c(c1C)C(=O)C(=O)c1c-2ccc2c(C)cccc12"
reported_metric = "IC50"
obs_value = "1.71 µg/mL"


Exercise: Write down the reported IC50 of Cc1c(CN(C)Cc2ccccc2)oc2c1C(=O)C(=O)c1c-2ccc2c(C)cccc12 , test system: PC-3 (prostate cancer).
Solution: 1.83 µg/mL

Exercise: Write down the reported IC50 of Cc1c(CNCCC(C)(C)C)oc2c1C(=O)C(=O)c1c-2ccc2c(C)cccc12 , test system: PC-3 (prostate cancer).
Solution: 14.7 µg/mL

Exercise: Write down the reported IC50 of CCCCNCc1oc2c(c1C)C(=O)C(=O)c1c-2ccc2c(C)cccc12 , test system: PC-3 (prostate cancer).
Solution: > 16 µg/mL

Exercise: Write down the reported IC50 of Cc1c(COC(=O)c2ccnc(Cl)c2)oc2c1C(=O)C(=O)c1c-2ccc2c(C)cccc12 , test system: PC-3 (prostate cancer).
Solution: 5.32 µg/mL

Exercise: Write down the reported IC50 of Cc1c(CN2CCCN(C)CC2)oc2c1C(=O)C(=O)c1c-2ccc2c(C)cccc12 , test system: PC-3 (prostate cancer).
Solution: 9.3 µg/mL

Exercise: Write down the reported IC50 of Cc1c(CN(C)CCOC(=O)C(C)(C)C)oc2c1C(=O)C(=O)c1c-2ccc2c(C)cccc12 , test system: PC-3 (prostate cancer).
Solution: 3.21 µg/mL

###

Parameter IC90: see the listing below.
- Test system: MG63 (osteosarcoma)
- protocol_notes: MTT growth inhibition of human solid tumor cells, 72 h
- Format: cell-based
- condition_label: Homo sapiens, MG-63, 72 h; read-out: IC90
Write the answer as a number in µg/mL, unit excluded.

Known results for compounds:
[[record]]
smiles_text = "Cc1c(CN(C)CCOC(=O)CNC(=O)OC(C)(C)C)oc2c1C(=O)C(=O)c1c-2ccc2c(C)cccc12"
reported_metric = "IC90"
unit_string = "µg/mL"
obs_value = 2.56

[[record]]
smiles_text = "C#CCNCc1oc2c(c1C)C(=O)C(=O)c1c-2ccc2c(C)cccc12"
reported_metric = "IC90"
unit_string = "µg/mL"
obs_value = 15.3

[[record]]
smiles_text = "Cc1c(CN(C)CCOC(=O)CCC(=O)O)oc2c1C(=O)C(=O)c1c-2ccc2c(C)cccc12"
reported_metric = "IC90"
unit_string = "µg/mL"
obs_value = 3.71


Kindly consider the entry below.
Exercise: Fill in the blank: the reported IC90 of Cc1c(COC(=O)c2ccnc(Cl)c2)oc2c1C(=O)C(=O)c1c-2ccc2c(C)cccc12 is ____.
Solution: 14

###

- Test system: Jurkat (acute lymphoblastic leukemia, ALL)
- protocol_notes: MTT growth inhibition of leukemia cells, 72 h
- Assay type: cell-based, human
- condition_label: Homo sapiens, 72 h, read-out: IC50
reported_metric: log10(IC50) (log10 of the value in µg/mL)
Plainly stated, the numbers are log10 of IC50 given in µg/mL.

[[record]]
compound = "COC(=O)/C=C/C(=O)OCCN(C)Cc1oc2c(c1C)C(=O)C(=O)c1c-2ccc2c(C)cccc12 [BS-TA-74]"
obs_value = -0.02


Exercise: Fill in the blank: the reported log10(IC50) of Cc1c(CN(C)CCO)oc2c1C(=O)C(=O)c1c-2ccc2c(C)cccc12 [BS-TA-B17] is ____.
Solution: -0.80

Exercise: Fill in the blank: the reported log10(IC50) of Cc1c(CN(C)CCOC(=O)CNC(=O)OC(C)(C)C)oc2c1C(=O)C(=O)c1c-2ccc2c(C)cccc12 [BS-TA-72] is ____.
Solution: -0.51

Exercise: Fill in the blank: the reported log10(IC50) of CCC(=O)OCc1oc2c(c1C)C(=O)C(=O)c1c-2ccc2c(C)cccc12 [BS-TA-A03] is ____.
Solution: 0.74

Exercise: Fill in the blank: the reported log10(IC50) of Cc1c(COC(=O)c2ccnc(Cl)c2)oc2c1C(=O)C(=O)c1c-2ccc2c(C)cccc12 [BS-TA-A01] is ____.
Solution: 0.48

Origin of measurements: patent US9328083B2
